Tested on: Hs578T complex spheroid growth, percent test/control
Assay: Anticancer human tumor Hs578T cell line growth inhibition [AhR];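 also: luminescent viability signal as a proxy for spheroid growth; spheroids exposed to agents for one week after three days of growth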
Conditions: second compound 10 µM; first compound 0.3 µM; stronger effect = lower value
Reported viability, T/C values for a set of compounds
Outcome Measure: viability, T/C (%)

[
  {
    "Compound": "CCN(c1cc(-c2ccc(CN3CCOCC3)cc2)cc(C(=O)NCc2c(C)cc(C)[nH]c2=O)c1C)C1CCOCC1 + Cc1cncc(-c2nc(NCCc3c[nH]c4ccccc34)c3ncn(C(C)C)c3n2)c1",
    "Unit Annotation": "%",
    "Observed Measurement": 5.08
  },
  {
    "Compound": "CCc1c2c(nc3ccc(O)cc13)-c1cc3c(c(=O)n1C2)COC(=O)[C@]3(O)CC + Cc1ccccc1N=Nc1ccc(NC(=O)c2ccnn2C)c(C)c1",
    "Unit Annotation": "%",
    "Observed Measurement": 30.3
  },
  {
    "Compound": "CC(C)CC(NC(=O)C(Cc1ccccc1)NC(=O)c1cnccn1)B(O)O (stereo not drawn) + CC(CO)NC(=O)c1cc(-c2ccc(Cl)cc2)nn(-c2cnn(C)c2)c1=O",
    "Unit Annotation": "%",
    "Observed Measurement": 0.53
  }
]

====

Test system: Hs578T complex spheroid growth, percent test/control
Experiment: Anticancer human tumor Hs578T cell line growth inhibition [AhR];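 also: luminescent viability signal as a proxy for spheroid growth; spheroids exposed to agents for one week after three days of growth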
Conditions: curve of first compound; second compound 0.1 µM
pIC50: −log10 of the molar value.

[
  {
    "Molecule": "CC(C)c1c(-c2ccccc2)nc2c(C#N)c[nH]n2c1=O + Cc1ccccc1N=Nc1ccc(NC(=O)c2ccnn2C)c(C)c1",
    "pIC50": "< 5.00"
  },
  {
    "Molecule": "O=C(c1cc(Cc2n[nH]c(=O)c3ccccc23)ccc1F)N1CCN(C(=O)C2CC2)CC1 + Cc1ccccc1N=Nc1ccc(NC(=O)c2ccnn2C)c(C)c1",
    "pIC50": "< 5.00"
  },
  {
    "Molecule": "COc1cccc2c1C(=O)c1c(O)c3c(c(O)c1C2=O)CC(O)(C(=O)CO)CC3OC1CC(N)C(O)C(C)O1 (configuration not stated) + Cc1cncc(-c2nc(NCCc3c[nH]c4ccccc34)c3ncn(C(C)C)c3n2)c1",
    "pIC50": 6.25
  },
  {
    "Molecule": "CCN(c1cc(-c2ccc(CN3CCOCC3)cc2)cc(C(=O)NCc2c(C)cc(C)[nH]c2=O)c1C)C1CCOCC1 + Cc1cncc(-c2nc(NCCc3c[nH]c4ccccc34)c3ncn(C(C)C)c3n2)c1",
    "pIC50": "< 5.52"
  },
  {
    "Molecule": "CC1COCCN1c1cc(C2(S(C)(=N)=O)CC2)nc(-c2ccnc3[nH]ccc23)n1 (configuration not stated) + CC(CO)NC(=O)c1cc(-c2ccc(Cl)cc2)nn(-c2cnn(C)c2)c1=O",
    "pIC50": "< 5.00"
  },
  {
    "Molecule": "Nc1ncn(C2CC(O)C(CO)O2)c(=O)n1 (configuration not stated) + CC(CO)NC(=O)c1cc(-c2ccc(Cl)cc2)nn(-c2cnn(C)c2)c1=O",
    "pIC50": "< 6.00"
  },
  {
    "Molecule": "COc1cc(C2c3cc4c(cc3C(OC3OC5COC(C)OC5C(O)C3O)C3COC(=O)C23)OCO4)cc(OC)c1O (configuration not stated) + CC(CO)NC(=O)c1cc(-c2ccc(Cl)cc2)nn(-c2cnn(C)c2)c1=O",
    "pIC50": "< 5.00"
  },
  {
    "Molecule": "CC(C)c1c(-c2ccccc2)nc2c(C#N)c[nH]n2c1=O + CC(CO)NC(=O)c1cc(-c2ccc(Cl)cc2)nn(-c2cnn(C)c2)c1=O",
    "pIC50": "< 5.00"
  },
  {
    "Molecule": "O=C(C=Cc1cccc(S(=O)(=O)Nc2ccccc2)c1)NO + CC(CO)NC(=O)c1cc(-c2ccc(Cl)cc2)nn(-c2cnn(C)c2)c1=O",
    "pIC50": 5.59
  },
  {
    "Molecule": "COc1cc(Nc2ncc3c(n2)-c2ccc(Cl)cc2C(c2c(F)cccc2OC)=NC3)ccc1C(=O)O + CC(CO)NC(=O)c1cc(-c2ccc(Cl)cc2)nn(-c2cnn(C)c2)c1=O",
    "pIC50": "< 5.00"
  },
  {
    "Molecule": "CCc1c2c(nc3ccc(O)cc13)-c1cc3c(c(=O)n1C2)COC(=O)[C@]3(O)CC + CC(CO)NC(=O)c1cc(-c2ccc(Cl)cc2)nn(-c2cnn(C)c2)c1=O",
    "pIC50": 6.68
  },
  {
    "Molecule": "NS(=O)(=O)OCC1CC(n2ccc3c(NC4CCc5ccccc54)ncnc32)CC1O (configuration not stated) + Cc1ccccc1N=Nc1ccc(NC(=O)c2ccnn2C)c(C)c1",
    "pIC50": 6.02
  }
]
